Attribute: % Inhibition of UV-induced lipid peroxidation
System: lipid peroxidation in homogenate of murine swiss 3T3 cells
Experiment: Inhibitory effects on UV-induced lipid peroxidation (homogenate of murine swiss 3T3 cells)
Type: biochemical
Conditions: 1 mM test compound; UVB 0.4 mW/cm^2, 90 min; pH 7.2 to 7.8; TBA, 535 nm
recorded-metric: % Inhibition of UV-induced lipid peroxidation (%)

# molecule, unit-abbrev, measurement
records = [
    ("O=C(O)CC(O)(CC(=O)O)C(=O)O [Citric acid, reference compound]", "%", 19),
    ("Oc1ccccc1CNCCc1c[nH]cn1 [Synthesis Example 15]", "%", 51),
    ("NC(=O)CNCc1ccccc1O [Synthesis Example 11]", "%", 77),
    ("O=S(=O)(O)CCNCc1ccccc1O [Synthesis Example 13]", "%", 53),
    ("CC(O)C(NCc1ccccc1O)C(=O)O (stereo not shown) [Synthesis Example 10]", "%", 56),
    ("O=C(O)[C@H](Cc1c[nH]cn1)NCc1ccccc1O [Synthesis Example 1, N-(2-hydroxybenzyl)-L-histidine]", "%", 40),
    ("OCCNCc1ccccc1O [Synthesis Example 14]", "%", 45),
    ("O=C(O)C(CO)NCc1ccccc1O (stereo not shown) [Synthesis Example 2]", "%", 59),
    ("CC(NCc1ccccc1O)C(=O)O (stereo not shown) [Synthesis Example 6]", "%", 66),
    ("CC(C)C(NCc1ccccc1O)C(=O)O (stereo not shown) [Synthesis Example 8]", "%", 60),
]

###

System: hydroxyl radical
Test: Inhibitory effects on hydroxyl radical formation (1) (xanthine/xanthine oxidase, deoxyribose)
Type: biochemical
Settings: 360 μM test compound; 36 μM ammonium iron (III) sulphate; xanthine oxidase 0.7 unit/ml; 37° C., 15 minutes; pH 7.4 to 7.8
Counter-ions that a name gives are not always drawn.

# compound, target-under-test, % Inhibition of hydroxyl radical
data = [
    ("Cc1ncc(CO)c(CNC(CO)C(=O)O)c1O (stereo not shown) [Synthesis Example 18]", "hydroxyl radical", "42%"),
    ("Cc1ncc(CO)c(C=N[C@@H](Cc2c[nH]cn2)C(=O)O)c1O [Synthesis Example 68, N-pyridoxilidene-L-histidine-sodium salt]", "hydroxyl radical", "15%"),
    ("Cc1ncc(CO)c(C=NC(Cc2ccc(O)cc2)C(=O)O)c1O (stereo not shown) [Synthesis Example 70]", "hydroxyl radical", "60%"),
    ("O=C(O)C(Cc1ccc(O)cc1)NCc1ccccc1O (stereo not shown) [Synthesis Example 4]", "hydroxyl radical", "33%"),
]

###

Test: UV absorptive activities
Assay type: physicochemical
Conditions: 100 μM in ethanol (water or DMSO added if not soluble)
Use YES when the recorded Wavelength (nm) of maximum absorption is no lower than 300 nm; use NO when it is lower.

# compound, discrete-label
records = [
    ("Cc1ncc(CO)c(CNC(CO)C(=O)O)c1O (stereo not drawn) [Synthesis Example 18]", "NO"),
    ("Cc1ncc(CO)c(CNC(Cc2c[nH]cn2)C(=O)O)c1O (stereo not drawn) [Synthesis Example 22]", "NO"),
    ("Cc1ncc(CO)c(C=NC(CO)C(=O)O)c1O (stereo not drawn) [Synthesis Example 69]", "YES"),
]

###

System: lipid peroxidation in murine brain homogenate
Test: Inhibitory effects on lipid peroxidation (murine brain homogenate)
Assay type: biochemical, murine (C57 black mouse)
Conditions: 30 μM test compound; no added iron; 37° C., 60 minutes; pH 7.2 to 7.8
Quick rule for you: % Inhibition of lipid peroxidation at 40% or higher means True, lower means False.

# compound, discrete-label
records = [
    ("O=C(O)C(CO)NCc1ccccc1O (centres unmarked) [Synthesis Example 2]", "False"),
    ("O=C(O)CC(O)(CC(=O)O)C(=O)O [Citric acid, reference compound]", "False"),
    ("Cc1ncc(CO)c(CNC(Cc2c[nH]cn2)C(=O)O)c1O (centres unmarked) [Synthesis Example 22]", "True"),
    ("Cc1ncc(CO)c(CNC(C(=O)O)C(C)O)c1O (centres unmarked) [Synthesis Example 19]", "True"),
    ("Cc1ncc(CO)c(CNC(CO)C(=O)O)c1O (centres unmarked) [Synthesis Example 18]", "True"),
]
